Reference source: patent US7084166B2

Test system: NB4 cells (acute promyelocytic leukaemia)
Assay: Cell differentiation by reduction of nitroblue tetrazolium (NBT), with suboptimal ATRA
Format: cell-based
Conditions: combined with suboptimal doses of ATRA, NBT
Here the recorded fold induction (differentiation, compound + ATRA vs ATRA alone) is given for each entry.
Output spec: single numeric token, no unit.

| molecule | obs value |
| --- | --- |
| OCCCCC(c1c[nH]c2ccccc12)c1c[nH]c2ccccc12 [ST 1346, 5-hydroxy-1,1-di-(indol-3-yl)-pentane] | 3.0 |
| OCCCCC(c1c[nH]c2cc3c(cc12)OCO3)c1c[nH]c2cc3c(cc12)OCO3 | 1.85 |
| Cn1cc(C(CCCCO)c2cn(C)c3ccccc23)c2ccccc21 | 1.8 |
| OCCCC(c1c[nH]c2ccccc12)c1c[nH]c2ccccc12 [ST 1707, 1,1-di(indol-3-yl)-4-hydroxy-butane] | 2.5 |

Here is another molecule to look at.
Input O=C(O)CCC(c1c[nH]c2ccccc12)c1c[nH]c2ccccc12 . Output fold induction (differentiation, compound + ATRA vs ATRA alone): 1.4

###

Test system: MCF-7 (human mammary carcinoma)
Assay: Cytotoxicity test on sensitive tumour cell lines (sulforodamine B test)
Type: cell-based
Details: 24 h incubation, survival after 48 h; ± S.D.; read-out: antiproliferative activity IC50, MCF-7
# note: boundary value 20 µM maps to not met; IC50 below it maps to met

Some solved cases for reference:
| molecule | class assignment |
| --- | --- |
| CCCC(c1c[nH]c2ccc(N)cc12)c1c[nH]c2ccc(N)cc12 [ST 1437, 1,1-di-(5-amino-indol-3-yl)-butane. 2HCl] | met |
| CCCC(c1cc2ccccc2[nH]1)c1c[nH]c2ccccc12 (racemic) | met |
| FCCCCC(c1c[nH]c2ccccc12)c1c[nH]c2ccccc12 | not met |
| c1ccc2c(C(c3c[nH]c4ccccc34)C3CCCCC3)c[nH]c2c1 | not met |
| OC(c1ccccc1)(c1nccn1Cc1ccccc1)c1nccn1Cc1ccccc1 | met |

Please examine the following record next.
Please determine if CC(=O)OC[C@@H](OC(C)=O)[C@@H](OC(C)=O)[C@H](OC(C)=O)[C@@H](OC(C)=O)C(c1c[nH]c2ccccc12)c1c[nH]c2ccccc12 is below 20 µM in terms of IC50. not met
